assay: Oral bioavailability in mouse at 5 mg/kg; assay type: ADME, organism-based; settings: in vivo
Measured Parameter: bioavailability

Documented bioavailability of CC1CN(CC2CCN(Cc3ccccc3)CC2)C(=O)N(c2cccc(C(=N)N)c2)C1 (stereo unspecified) : < 1%

* * *

test: Half life in mouse liver microsomes by LC/MS analysis; format: ADME
Measured Parameter: half-life (h)
Numbers only; they are read as h.

Documented half-life of CC1CN(CC2CCN(Cc3ccccc3)CC2)C(=O)N(c2cccc(C(=N)N)c2)C1 (stereo unspecified) : 4.93

* * *

experiment: AUC in mouse at 5 mg/kg, po; type: ADME, organism-based; details: in vivo
Measured Parameter: AUC (ng·h/mL)
Numbers only; they are read as ng·h/mL.

Documented AUC of CC1CN(CC2CCN(Cc3ccccc3)CC2)C(=O)N(c2cccc(C(=N)N)c2)C1 (stereo unspecified) : 3.31

* * *

molecular target: Suppressor of tumorigenicity 14 protein (Homo sapiens, UniProt Q9Y5Y6); assay: Inhibition of human recombinant matripase catalytic domain using H2N(EEdansyl)GKQLRVVNGG (KDabcyl)-NH2 as substrate by fluorometric analysis
Sequence (Q9Y5Y6 whole entry, the tested form may be a part): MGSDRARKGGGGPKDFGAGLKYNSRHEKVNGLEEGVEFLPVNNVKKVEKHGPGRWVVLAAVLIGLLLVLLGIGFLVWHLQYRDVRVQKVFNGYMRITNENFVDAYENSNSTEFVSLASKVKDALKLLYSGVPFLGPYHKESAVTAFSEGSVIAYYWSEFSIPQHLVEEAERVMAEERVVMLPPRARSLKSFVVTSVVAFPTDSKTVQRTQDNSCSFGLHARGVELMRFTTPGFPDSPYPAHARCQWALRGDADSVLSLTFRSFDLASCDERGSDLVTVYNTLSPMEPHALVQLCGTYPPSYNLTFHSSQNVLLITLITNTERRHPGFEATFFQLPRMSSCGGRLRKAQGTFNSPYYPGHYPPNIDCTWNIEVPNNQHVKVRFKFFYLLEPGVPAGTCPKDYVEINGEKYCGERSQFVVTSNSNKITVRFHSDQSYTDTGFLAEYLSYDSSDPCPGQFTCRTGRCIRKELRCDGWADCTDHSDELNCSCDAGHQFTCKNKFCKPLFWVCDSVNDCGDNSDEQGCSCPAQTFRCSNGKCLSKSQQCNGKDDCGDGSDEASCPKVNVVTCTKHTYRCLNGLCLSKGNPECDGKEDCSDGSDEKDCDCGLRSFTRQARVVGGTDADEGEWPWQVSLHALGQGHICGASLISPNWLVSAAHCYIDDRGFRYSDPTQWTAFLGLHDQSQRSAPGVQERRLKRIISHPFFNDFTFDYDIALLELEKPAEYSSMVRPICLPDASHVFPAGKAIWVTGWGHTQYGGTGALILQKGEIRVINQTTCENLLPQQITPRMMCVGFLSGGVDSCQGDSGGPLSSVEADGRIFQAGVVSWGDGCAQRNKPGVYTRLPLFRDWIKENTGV
Measured Parameter: Ki
Be sure to follow the number with its unit.

Documented Ki of N=C(N)c1cccc(N2CC(COCc3ccccc3)CN(CC3CCN(Cc4ccccc4)CC3)C2=O)c1 (stereo not given) : 850 nM

Further cases:
Documented Ki of CC1CN(c2cccc(C(=N)N)c2)C(=O)N(C2CCN(Cc3ccccc3)CC2)C1 (stereo not given) : 830 nM

Documented Ki of COCC1CN(CC2CCN(Cc3ccccc3)CC2)C(=O)N(c2cccc(C(=N)N)c2)C1 (stereo not given) : 850 nM

Documented Ki of CC1CN(c2ccc(C(=N)N)cc2)C(=O)N(C2CCN(Cc3ccccc3)CC2)C1 (stereo not given) : 48900 nM

Documented Ki of CC1CN(CCC2CCN(Cc3ccccc3)CC2)C(=O)N(c2cccc(C(=N)N)c2)C1 (stereo not given) : 510 nM

Documented Ki of CS(=O)(=O)NC1CN(CC2CCN(Cc3ccccc3)CC2)C(=O)N(c2cccc(C(=N)N)c2)C1 (stereo not given) : 330 nM

Documented Ki of "N=C(N)c1cccc(NC(=O)NC2CCN(Cc3ccccc3)CC2)c1" : 40500 nM

Documented Ki of N=C(N)c1cccc(N2CC(CO)CN(CC3CCN(Cc4ccccc4)CC3)C2=O)c1 (stereo not given) : 580 nM

Documented Ki of N=C(N)c1cccc(N2CC(OCc3ccccc3)CN(CC3CCN(Cc4ccccc4)CC3)C2=O)c1 (stereo not given) : 1540 nM

Documented Ki of N=C(N)c1cccc(N2CC(NS(=O)(=O)Cc3ccccc3)CN(CC3CCN(Cc4ccccc4)CC3)C2=O)c1 (stereo not given) : 350 nM

* * *

target: Hepatocyte growth factor activator serine protease (Homo sapiens); assay: Inhibition of human recombinant hepatocyte growth factor activator using H2N(EEdansyl)GKQLRVVNGG (KDabcyl)-NH2 as substrate by fluorometric analysis
Sequence (Q04756 373-407 limits assumed): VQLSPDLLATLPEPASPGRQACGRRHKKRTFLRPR
Sequence (Q04756 408-655 limits assumed): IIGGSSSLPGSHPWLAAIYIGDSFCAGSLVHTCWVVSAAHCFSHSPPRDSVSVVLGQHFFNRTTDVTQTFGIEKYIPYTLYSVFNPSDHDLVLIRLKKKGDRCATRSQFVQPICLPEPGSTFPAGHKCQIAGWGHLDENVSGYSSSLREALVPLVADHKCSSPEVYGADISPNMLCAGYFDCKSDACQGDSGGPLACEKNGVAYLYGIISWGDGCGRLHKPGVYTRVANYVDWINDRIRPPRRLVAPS
Mark each entry class 1 if its Ki sits below 1000 nM, and class 0 for all others.

API: query returns whether the compound falls strictly under 1000 nM in Ki. Query: CC1CN(c2cccc(C(=N)N)c2)C(=O)N(C2CCN(Cc3ccccc3)CC2)C1 (centres undefined)
class 0

API: query returns whether the compound falls strictly under 1000 nM in Ki. Query: N=C(N)c1cccc(N2CC(CO)CN(CC3CCN(Cc4ccccc4)CC3)C2=O)c1 (centres undefined)
class 1

API: query returns whether the compound falls strictly under 1000 nM in Ki. Query: CC1CN(CC2CCN(Cc3ccccc3)CC2)C(=O)N(c2cccc(C(=N)N)c2)C1 (centres undefined)
class 1

API: query returns whether the compound falls strictly under 1000 nM in Ki. Query: COC1CN(CC2CCN(Cc3ccccc3)CC2)C(=O)N(c2cccc(C(=N)N)c2)C1 (centres undefined)
class 0

API: query returns whether the compound falls strictly under 1000 nM in Ki. Query: CC1CN(Cc2cccc(C(=N)N)c2)C(=O)N(C2CCN(Cc3ccccc3)CC2)C1 (centres undefined)
class 0

Further cases:
API: query returns whether the compound falls strictly under 1000 nM in Ki. Query: "N=C(N)c1cccc(NC(=O)NC2CCN(Cc3ccccc3)CC2)c1"
class 0

API: query returns whether the compound falls strictly under 1000 nM in Ki. Query: N=C(N)c1cccc(N2CC(NS(=O)(=O)Cc3ccccc3)CN(CC3CCN(Cc4ccccc4)CC3)C2=O)c1 (centres undefined)
class 1

API: query returns whether the compound falls strictly under 1000 nM in Ki. Query: CC1CN(Cc2ccc(C(=N)N)cc2)C(=O)N(C2CCN(Cc3ccccc3)CC2)C1 (centres undefined)
class 0

API: query returns whether the compound falls strictly under 1000 nM in Ki. Query: N=C(N)c1cccc(N2CC(COCc3ccccc3)CN(CC3CCN(Cc4ccccc4)CC3)C2=O)c1 (centres undefined)
class 1

API: query returns whether the compound falls strictly under 1000 nM in Ki. Query: N=C(N)c1cccc(N2CC(O)CN(CC3CCN(Cc4ccccc4)CC3)C2=O)c1 (centres undefined)
class 1

API: query returns whether the compound falls strictly under 1000 nM in Ki. Query: CS(=O)(=O)NC1CN(CC2CCN(Cc3ccccc3)CC2)C(=O)N(c2cccc(C(=N)N)c2)C1 (centres undefined)
class 1

API: query returns whether the compound falls strictly under 1000 nM in Ki. Query: N=C(N)c1cccc(N2CC(CNC(=O)c3ccccc3)CN(CC3CCN(Cc4ccccc4)CC3)C2=O)c1 (centres undefined)
class 0

API: query returns whether the compound falls strictly under 1000 nM in Ki. Query: N=C(N)c1cccc(N2CC(NS(=O)(=O)c3ccccc3)CN(CC3CCN(Cc4ccccc4)CC3)C2=O)c1 (centres undefined)
class 1
